Molecular target: EPHB1 (human)
Experiment: radiometric filter-binding kinase assay, Kinase HotSpot
Conditions: compound 0.5 µM; ATP 10 µM

molecule	residual activity, %
Nc1n[nH]c2nnc(-c3c(-c4ccccc4)nn4ccccc34)cc12	98.6
Oc1ccc(-c2nc(-c3ccc(F)cc3)c(-c3ccncc3)[nH]2)cc1	96.8
COc1ccc(-c2cnc3c(-c4ccsc4)cnn3c2)cc1	83.1
COc1cc2nccc(Oc3ccc(NC(=S)NC(=O)c4ccccc4C)cc3)c2cc1OC	98.5
CCCNC(=O)Nc1ccc(Oc2ncnc3cc(OC)c(OC)cc23)cc1Cl	95.5
CS(=O)c1ccc(-c2nc(-c3ccc(F)cc3)c(-c3ccncc3)[nH]2)cc1 (stereo not given)	93
O=C(NC(NC(=S)Nc1ccc(F)c([N+](=O)[O-])c1)C(Cl)(Cl)Cl)C(c1ccccc1)c1ccccc1 (stereo not given)	109
O=C1Nc2cc(Br)ccc2/C1=C1/Nc2ccccc2/C1=N\O	72.3
O=C1Cc2c([nH]c3ccc([N+](=O)[O-])cc23)-c2ccccc2N1	112
C#Cc1cccc(Nc2ncnc3cc(OCCOC)c(OCCOC)cc23)c1	100
CCN1/C(=C/C(C)=O)Sc2ccc(OC)cc21	90.6
O=C1Nc2ccccc2/C1=C\c1c(Cl)[nH]c2ccccc12	90.8
CC(C)[C@H](CO)Nc1nc(Nc2cccc(Cl)c2)c2ncn(C(C)C)c2n1	83.5
CC(C)(C)c1nc2c3ccc(F)cc3c3c(=O)[nH]ccc3c2[nH]1	94.9
CSc1nc(-c2ccc(F)cc2)c(-c2ccnc(NC(C)c3ccccc3)c2)[nH]1 (stereo not given)	96.4
